Assay: Antibiotic concentrations in porcine oral fluid after intramuscular application (UHPLC-MS/MS)
Type: in vivo
Conditions: male, (Landrace × Yorkshire) × Duroc crossbred (DanBred sows), pig, intramuscular; oral fluid, pigs, i.m., time 5 d, posttreatment; read-out: Avarage Concentrations in oral fluid
Threshold check on concentration at 5 d: at or above 500 ng/mL gives 1, strictly below gives -1.

Please review the following examples before continuing.
compound="CC1(C)S[C@@H]2[C@H](NC(=O)Cc3ccccc3)C(=O)N2[C@H]1C(=O)O [PEN G, penicillin G]" group_label=-1
compound="C=C[C@]1(C)C[C@@H](OC(=O)CSCCN(CC)CC)[C@]2(C)[C@H](C)CC[C@]3(CCC(=O)[C@H]32)[C@@H](C)[C@@H]1O [TIAM, tiamulin]" group_label=1
compound="COc1ncnc(NS(=O)(=O)c2ccc(N)cc2)c1OC [SDX, sulfadoxine]" group_label=1

Query: Dear colleague, could you confirm whether COc1cc(Cc2cnc(N)nc2N)cc(OC)c1OC [TRMP, trimethoprim] has concentration at 5 d at or above 500 ng/mL?
Response: 1

Query: # bool: concentration at 5 d of CC[C@H]1OC(=O)C[C@@H](O)[C@H](C)[C@@H](O[C@@H]2O[C@H](C)[C@@H](O[C@H]3C[C@@](C)(O)[C@@H](O)[C@H](C)O3)[C@H](N(C)C)[C@H]2O)[C@@H](CC=O)C[C@@H](C)C(=O)/C=C/C(C)=C/[C@@H]1CO[C@@H]1O[C@H](C)[C@@H](O)[C@@H](OC)[C@H]1OC [TYL, tylosin] >= 500 ng/mL
Response: 1

Query: Tell me whether concentration at 5 d is at least 500 ng/mL here: CCC[C@@H]1C[C@@H](C(=O)N[C@@H]([C@H]2O[C@H](SC)[C@H](O)[C@@H](O)[C@H]2O)[C@@H](C)O)N(C)C1 [LIN, lincomycin]
Response: 1

Query: Answer whether concentration at 5 d of CC1(C)S[C@@H]2[C@H](NC(=O)[C@H](N)c3ccc(O)cc3)C(=O)N2[C@H]1C(=O)O [AMX, amoxicillin] is greater than or equal to 500 ng/mL.
Response: -1
